- TEST: Metabolic stability in rat liver microsomes assessed as unchanged parent compound at 1 uM after 60 mins
- Type: ADME, Microsome
- EXPERIMENTAL PARAMETERS: read-out: Stability
RESULT TYPE: remaining at 1 h, 1 µM (%)
Give the value, in units of %, as a plain number.

*Q* Quick one: remaining at 1 h, 1 µM for Cc1cc(OC[C@@H]2CCN2)on1 ?
*A* 67.5

* * *

- STUDY SYSTEM: CYP3A4 (Homo sapiens)
- Sequence (P08684 whole entry): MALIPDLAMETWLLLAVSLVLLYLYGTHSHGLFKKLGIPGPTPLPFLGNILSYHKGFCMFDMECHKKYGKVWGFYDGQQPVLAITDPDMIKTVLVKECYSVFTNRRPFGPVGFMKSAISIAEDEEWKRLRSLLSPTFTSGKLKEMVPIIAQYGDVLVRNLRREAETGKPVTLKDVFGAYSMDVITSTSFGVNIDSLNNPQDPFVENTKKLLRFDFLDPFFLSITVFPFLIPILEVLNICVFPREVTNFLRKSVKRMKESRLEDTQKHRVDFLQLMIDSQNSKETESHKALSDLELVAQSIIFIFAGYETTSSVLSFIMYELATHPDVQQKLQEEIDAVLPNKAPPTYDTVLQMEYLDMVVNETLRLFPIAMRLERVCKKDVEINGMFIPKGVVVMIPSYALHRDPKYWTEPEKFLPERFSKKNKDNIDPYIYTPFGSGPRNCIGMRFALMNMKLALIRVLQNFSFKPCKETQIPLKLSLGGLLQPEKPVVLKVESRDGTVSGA
- TEST: Inhibition of human liver microsome CYP3A4 using midazolam as substrate assessed as residual activity at 1 uM
- Format: ADME
- EXPERIMENTAL PARAMETERS: human liver microsomes, probe midazolam, read-out: Activity
RESULT TYPE: activity at 1 µM

*Q* Quick one: activity at 1 µM for Cc1cc(OC[C@@H]2CCN2)on1 ?
*A* < 70%

* * *

- STUDY SYSTEM: CYP2C19 (Homo sapiens, UniProt P33261)
- Sequence (P33261 whole entry): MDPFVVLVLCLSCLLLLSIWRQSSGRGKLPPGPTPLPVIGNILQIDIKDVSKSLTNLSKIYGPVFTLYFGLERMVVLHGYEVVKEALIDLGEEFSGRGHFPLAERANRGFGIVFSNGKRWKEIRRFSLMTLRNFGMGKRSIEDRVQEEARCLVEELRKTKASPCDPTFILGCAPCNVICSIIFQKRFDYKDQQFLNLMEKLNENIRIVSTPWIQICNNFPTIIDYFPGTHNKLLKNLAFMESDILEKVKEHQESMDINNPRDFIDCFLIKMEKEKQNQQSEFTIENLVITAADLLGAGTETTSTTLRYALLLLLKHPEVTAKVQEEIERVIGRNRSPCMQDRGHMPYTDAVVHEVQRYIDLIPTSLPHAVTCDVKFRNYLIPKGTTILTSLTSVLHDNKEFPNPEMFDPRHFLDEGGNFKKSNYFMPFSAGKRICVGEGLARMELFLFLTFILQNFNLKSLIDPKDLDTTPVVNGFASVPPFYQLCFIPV
- TEST: Inhibition of human liver microsome CYP2C19 using mephenytoin as substrate assessed as residual activity at 1 uM
- Type: ADME
- EXPERIMENTAL PARAMETERS: human liver microsomes, probe mephenytoin, read-out: Activity
RESULT TYPE: activity at 1 µM

*Q* Quick one: activity at 1 µM for Cc1cc(OC[C@@H]2CCN2)on1 ?
*A* < 70%

* * *

- TEST: Binding affinity to rat forebrain alpha7* nACHR at 10 uM
RESULT TYPE: pKi
In simple prose, pKi is minus the logarithm base ten of a concentration in moles per litre.

*Q* Quick one: pKi for Cc1cc(OC[C@@H]2CCN2)on1 ?
*A* 5.17

* * *

- STUDY SYSTEM: CYP3A4 (Homo sapiens)
- TEST: Inhibition of human liver microsome CYP3A4 using testosterone as substrate assessed as residual activity at 1 uM
- Type: ADME
- EXPERIMENTAL PARAMETERS: human liver microsomes, probe testosterone, read-out: Activity
RESULT TYPE: activity at 1 µM

*Q* Quick one: activity at 1 µM for Cc1cc(OC[C@@H]2CCN2)on1 ?
*A* < 70%

* * *

- STUDY SYSTEM: hERG (KCNH2) (Homo sapiens, UniProt Q12809)
- Sequence (Q12809 whole entry): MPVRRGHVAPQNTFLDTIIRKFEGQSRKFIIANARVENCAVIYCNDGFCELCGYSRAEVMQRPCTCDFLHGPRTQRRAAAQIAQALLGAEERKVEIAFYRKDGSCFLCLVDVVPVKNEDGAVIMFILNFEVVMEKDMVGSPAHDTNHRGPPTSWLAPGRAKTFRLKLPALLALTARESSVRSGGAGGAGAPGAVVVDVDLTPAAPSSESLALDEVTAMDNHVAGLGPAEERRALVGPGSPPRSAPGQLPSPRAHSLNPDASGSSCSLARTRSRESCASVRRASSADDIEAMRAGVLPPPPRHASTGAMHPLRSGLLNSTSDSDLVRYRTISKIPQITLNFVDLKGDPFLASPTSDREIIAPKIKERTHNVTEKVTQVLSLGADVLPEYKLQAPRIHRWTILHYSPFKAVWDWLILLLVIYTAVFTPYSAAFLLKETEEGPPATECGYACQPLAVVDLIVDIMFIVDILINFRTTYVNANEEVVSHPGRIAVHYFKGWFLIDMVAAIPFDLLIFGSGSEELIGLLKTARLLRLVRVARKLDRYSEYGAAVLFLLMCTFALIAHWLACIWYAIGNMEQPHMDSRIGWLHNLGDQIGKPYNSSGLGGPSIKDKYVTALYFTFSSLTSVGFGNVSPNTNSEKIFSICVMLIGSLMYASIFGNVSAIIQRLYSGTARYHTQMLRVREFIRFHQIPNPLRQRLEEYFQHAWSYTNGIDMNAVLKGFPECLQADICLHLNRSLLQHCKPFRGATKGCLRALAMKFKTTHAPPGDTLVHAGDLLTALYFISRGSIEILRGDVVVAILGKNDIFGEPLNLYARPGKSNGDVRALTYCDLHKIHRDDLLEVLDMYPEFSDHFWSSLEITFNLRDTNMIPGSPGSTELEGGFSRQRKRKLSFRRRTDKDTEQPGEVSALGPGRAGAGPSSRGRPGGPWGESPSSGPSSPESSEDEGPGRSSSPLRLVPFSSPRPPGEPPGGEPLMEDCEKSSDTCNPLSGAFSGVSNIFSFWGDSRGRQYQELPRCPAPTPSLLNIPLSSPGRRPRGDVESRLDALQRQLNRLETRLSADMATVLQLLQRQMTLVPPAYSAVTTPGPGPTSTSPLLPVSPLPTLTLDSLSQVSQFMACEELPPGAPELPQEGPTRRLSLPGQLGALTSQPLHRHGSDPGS
- TEST: Inhibition of human recombinant ERG expressed in HEK293 cells at 10 uM by fluorescence-based membrane potential analysis
- Format: cell-based
- EXPERIMENTAL PARAMETERS: HEK293 cells expressing human recombinant ERG
RESULT TYPE: inhibition at 10 µM (%)
Give the value, in units of %, as a plain number.

*Q* Quick one: inhibition at 10 µM for Cc1cc(OC[C@@H]2CCN2)on1 ?
*A* 0

* * *

- TEST: Plasma protein binding in mouse at 0.1 to 10 uM by equilibrium dialysis
- Assay type: ADME, cell-free
- EXPERIMENTAL PARAMETERS: read-out: PPB (converted)
RESULT TYPE: fraction unbound at up to 10 µM
The answer should be a number; do not append a unit.

*Q* Quick one: fraction unbound at up to 10 µM for Cc1cc(OC[C@@H]2CCN2)on1 ?
*A* 0.871

Values were extracted from ChEMBL document CHEMBL2163280.
